Biological target: Cytochrome P450 2D6 (Homo sapiens)
Test: qHTS Assay for Inhibitors and Substrates of Cytochrome P450 2D6 (AID 891); further: nearly all actives have a fitted effect of over 60% in size
Conditions: recombinant CYP2D6, luciferin-ME EGE luminescence; series mostly up to 57.1 µM
Inconclusive results are not listed. Calls of active or inactive are those of the source. The call rests on the fitted dose curve; in most records, active means well fitted inhibition curve with a large enough effect; inconclusive means small, poorly fitted or top-dose-only effect; inactive means no such curve, though single readings can be large or run the other way.
A correct response names exactly one class from active, inactive

compound=CCOc1ccc2c(c1)C(C)=CC(C)(C)N2 class_name=active
compound=c1ccc(N2CCCC3(CCNCC3)C2)cc1 class_name=active
compound=CNC(=O)Oc1ccc2c(c1)[C@@]1(C)CCN(C)[C@@H]1N2C class_name=active
compound=CNC[C@H](O)c1ccc(O)cc1 class_name=inactive
compound=COc1ccc(NC(=O)N2CC[C@@]3(CCCN(C(=O)Oc4ccccc4)C3)C2)cc1 class_name=active
compound=CN1CCc2cc3c(cc2[C@@H]1[C@@H]1OC(=O)c2c1ccc1c2OCO1)OCO3 class_name=inactive
compound=COc1ccc2c(c1O)-c1c(OC)c(OC)cc3c1[C@H](C2)N(C)CC3 class_name=inactive
compound=COc1cc2c(c(OC)c1OC)-c1ccc(O)c(=O)cc1[C@@H](NC(C)=O)CC2 class_name=inactive

**Q:** # lookup: test call for N#Cc1cccc(NC(=O)N2CC[C@@]3(CCCN(C(=O)Oc4ccccc4)C3)C2)c1
**A:** inactive

**Q:** For CN(C)[C@@H]1C(=O)C(C(N)=O)=C(O)[C@]2(O)C(=O)C3=C(O)c4c(O)cccc4[C@@](C)(O)[C@@H]3C[C@@H]12 , which call appears in the assay record?
**A:** inactive

**Q:** Short answer needed: outcome of this test for O=C(c1ccncc1)N1CCC2(CC1)CN(Cc1ccccc1)C2 ?
**A:** active

**Q:** Recorded test call requested for COc1cc2c(cc1O)C[C@H]1c3c(cc(OC)c(O)c3-2)CCN1C
**A:** active

**Q:** Lab log entry: CS(=N)(=O)CC[C@@H](N)C(=O)O (some centres not stated) — outcome as called in the assay?
**A:** inactive

**Q:** GET /call?item= CN1CC[C@]2(C)c3cc(O)ccc3N(C)[C@@H]12 returns the recorded outcome of this test.
**A:** active

**Q:** // param item: COc1ccc2c(c1OC)CN1CCc3cc4c(cc3[C@H]1C2)OCO4 ; yields the recorded call
**A:** active

**Q:** Query: recorded result category for CN(C)C(=O)Oc1cc(OC(=O)N(C)C)cc([C@@H](O)CNC(C)(C)C)c1 in this test
**A:** active

**Q:** Returns: the outcome recorded for COc1ccc2c(c1OC)C(=O)O[C@H]2[C@H]1c2cc3c(cc2CCN1C)OCO3 in this assay.
**A:** inactive

----------
Assay: Cell Viability - LYMP2-010 (AID 981);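 further: cells exposed to compound for 24 hours at 37 °C; nearly all actives have a fitted effect of over 55% in size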
Conditions: LYMP2-010 lymphoblastoid cell viability, qHTS; series mostly up to 92.2 µM
Results filed as inconclusive are left out. Activity calls are given as the source filed them. Calls come from the whole dose curve; as a rule, active = well fitted cell-killing curve with a large enough effect; inconclusive = small, poorly fitted or top-dose-only effect; inactive = flat fitted curve, though single readings scatter.
Reported metric: outcome

molecule=C=C(C)C#N assay_result=inactive
molecule=Clc1cc(Cl)c(-c2cc(Cl)c(Cl)cc2Cl)cc1Cl assay_result=inactive
molecule="C=C(C)C(=O)OCC1CO1 (stereo not drawn)" assay_result=inactive

----------
Assay: Cell Viability - LYMP2-003 (AID 965);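 further: cells exposed to compounds for 24 h before reading; nearly all actives have a fitted effect of over 50% in size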
Conditions: LYMP2-003 lymphoblastoid cell viability; series mostly up to 92.2 µM
Results filed as inconclusive are left out. Activity calls are given as the source filed them. Calls come from the whole dose curve; as a rule, active = well fitted cell-killing curve with a large enough effect; inconclusive = small, poorly fitted or top-dose-only effect, or effect the other way; inactive = flat fitted curve, though single readings scatter.
Give one outcome, nothing more. List: active, inactive

**Q:** Would you mind telling me which call this test gave CCSC(=O)Cl ?
**A:** inactive
